experiment: yeast display, Sf9 membrane polyspecificity reagent, FACS + sequencing; frameworks hold sequencing errors
assayEndpoint: polyreactivity (PSR sort gate)

{"columns": ["sequenceInput", "polyreactivity (PSR sort gate)"],
 "data": [
  ["QVQLVESGGGLVQAGGSLRLSCAASGSTLNYNAMGWYRQAPGKERELVAAISWSGGSTYYADSVKGRFTISRDNAKNTVYLQMNSLKPEDTAVYYCAADQSTVLDVGSWGQGTQVTGSS", "low polyreactivity"],
  ["QVQLVESGGGLVQAGGSLRLSCAATGFIFPKYAMGWYSKAPGKERELVAAISKSGGRTYYADSVKGRFTISRDNAKNTVYLQMNSLKPEDTAVYYCAAEFTYEGDSWGQGTQVTVSS", "high polyreactivity"],
  ["QVQLVESGGGLVQAGGSLRLSCAASGYIFRVYAMGWYTPAPGKERELVAAISGSGGRTYYADSVKGRFKFSLDIAKNTVYLKMNSLKREDTAVYYCAATLYYYVGVRYDYWGQGSQVTVSS", "high polyreactivity"],
  ["QVQLVESGGGLVQAGGSLRLSCAASGLIFGNYAMGWYRQAPGKERELVAAITSTGITYYADSVKGRFTISRDNAKNTVYLQMNSLKPEDTAVYYCNADYYRHSLDYDYVGYDYWGQGTQVTVSS", "low polyreactivity"]
]}

Exercise: Tell me the measured polyreactivity (PSR sort gate) of `QVQLVESGGGLVQAGGSLRLSCSASGITFEGYAMGGYRQAPGKERELVAAIRSSGTSRYYADSVKGRFTISRDNAKNTVYLQMNSQKPEDTAVYYCNRARSSSRYDYWGQGTQVTVSS` , please.
Solution: low polyreactivity
